experiment: in vitro; conditions: African green monkey, CPE Inhibition IC50 (cytotoxic), Respiratory Syncytial Virus test
test_readout: IC50 (µg/mL)
API: value field is a number in µg/mL; no unit string.

Observe how each entry below is paired with its result.
compound: O=c1cc(-c2ccc(O)c(-c3c(O)cc4oc(-c5ccc(O)cc5)cc(=O)c4c3O)c2)oc2cc(O)cc(O)c12
IC50, µg/mL: 56
--
compound: O=c1cc(-c2ccc(Oc3c(O)cc4oc(-c5ccc(O)cc5)cc(=O)c4c3O)cc2)oc2cc(O)cc(O)c12
IC50, µg/mL: 2.5

Data point: O=C1CC(c2ccc(O)cc2)Oc2cc(O)c(-c3c(O)cc(O)c4c3OC(c3ccc(O)cc3)CC4=O)c(O)c21 (centres unmarked) ; IC50 = 18

###

tested on: Respiratory Syncytial Virus; assay: microbe, parasite or virus in culture; type: cell-based; settings: human respiratory syncytial virus, MA104; read-out: CPE Inhibition EC50
Property: EC50; scope: individual compounds

compound: COc1ccc(-c2cc(=O)c3c(OC)cc(OC)c(C4C(=O)c5c(OC)cc(OC)cc5OC4c4ccc(OC)cc4)c3o2)cc1 (centres unmarked) [Volkensiflavone hexamethyl ether (6), volkensiflavone hexamethyl ether]
target_under_test: Respiratory Syncytial Virus
EC50: ~18 µg/mL

compound: O=c1cc(-c2ccc(O)c(-c3c(O)cc4oc(-c5ccc(O)cc5)cc(=O)c4c3O)c2)oc2cc(O)cc(O)c12 [Robustaflavone (3), robustaflavone]
target_under_test: Respiratory Syncytial Virus
EC50: > 100 µg/mL

Data point: O=C1CC(c2ccc(O)cc2)Oc2cc(O)c(-c3c(O)cc(O)c4c3OC(c3ccc(O)cc3)CC4=O)c(O)c21 (centres unmarked) [Rhusflavanone (9), rhusflavanone] ; EC50 = > 10 µg/mL

Data point: O=c1cc(-c2ccc(O)c(-c3c(O)cc(O)c4c(=O)cc(-c5ccc(O)cc5)oc34)c2)oc2cc(O)cc(O)c12 [Amentoflavone (1), amentoflavone] ; EC50 = ~10 µg/mL

Data point: O=C1CC(c2ccc(O)cc2)Oc2cc(O)c(-c3c(O)cc4c(c3O)C(=O)CC(c3ccc(O)cc3)O4)c(O)c21 (centres unmarked) [Succedaneaflavanone (11), succedaneaflavanone] ; EC50 = > 10 µg/mL

###

biological target: HIV-1 RT (Human immunodeficiency virus type 1 group M subtype B); construct: made in house; host or cells: Escherichia coli; experiment: Anti-HIV-1 RT assay (recombinant enzyme); assay type: biochemical
test_readout: activity against HIV-1 RT (in words)

compound: O=C1CC(c2ccc(O)cc2)Oc2cc(O)c(-c3c(O)cc(O)c4c3OC(c3ccc(O)cc3)CC4=O)c(O)c21 (stereo not drawn) [Rhusflavanone (9), rhusflavanone]
target_under_test: HIV-1 RT (Human immunodeficiency virus type 1 group M subtype B)
test_readout: activity against HIV-1 RT (in words)
observed_result: completely inactive
--
compound: COc1ccc(-c2cc(=O)c3c(OC)cc(OC)c(C4C(=O)c5c(OC)cc(OC)cc5OC4c4ccc(OC)cc4)c3o2)cc1 (stereo not drawn) [Volkensiflavone hexamethyl ether (6), volkensiflavone hexamethyl ether]
target_under_test: HIV-1 RT (Human immunodeficiency virus type 1 group M subtype B)
test_readout: activity against HIV-1 RT (in words)
observed_result: inactive
--
compound: O=C1CC(c2ccc(O)cc2)Oc2cc(O)c(-c3c(O)cc4c(c3O)C(=O)CC(c3ccc(O)cc3)O4)c(O)c21 (stereo not drawn) [Succedaneaflavanone (11), succedaneaflavanone]
target_under_test: HIV-1 RT (Human immunodeficiency virus type 1 group M subtype B)
test_readout: activity against HIV-1 RT (in words)
observed_result: completely inactive
--
compound: COc1ccc([C@@H]2Oc3cc(OC)cc(OC)c3C(=O)[C@H]2c2c(OC)cc(OC)c3c(=O)cc(-c4ccc(OC)c(OC)c4)oc23)cc1 [morelloflavone heptamethyl ether (8), morelloflavone heptamethyl ether]
target_under_test: HIV-1 RT (Human immunodeficiency virus type 1 group M subtype B)
test_readout: activity against HIV-1 RT (in words)
observed_result: inactive

Please examine the following record next.
Data point: COc1ccc(C2CC(=O)c3c(OC)cc(OC)c(C4C(=O)c5c(OC)cc(OC)cc5OC4c4ccc(OC)cc4)c3O2)cc1 (stereo not drawn) [GB-1a Me6(14), GB-1a hexamethyl ether] ; activity against HIV-1 RT (in words) = inactive

Data origin: patent US6399654B1
